For each entry below, report its pKi value.
Test: Inhibition of alpha-chymotrypsin by Lineweaver-Burke plot analysis
Answers are plain numbers, as −log10 of the molar value.

> print(dat)
                           structure.string  recorded.value
1  CC(C)(C)OC(=O)N[C@@H](Cc1ccccc1)C(=O)N1CC#Cc2ccccc2C#CCC1            5.52
2  C[C@H](NC(=O)OC(C)(C)C)C(=O)N[C@@H](Cc1ccccc1)C(=O)NCCC#Cc1ccccc1C#CC=O            4.92

Consider the additional compound presented here.
# input compound: CC(C)(C)OC(=O)N[C@@H](Cc1ccccc1)C(=O)OCC(=O)N1CC#Cc2ccccc2C#CCC1 ; wanted: its pKi
4.52

----------
Test: Inhibition of alpha-chymotrypsin assessed as decrease in proteolysis of BSA at 1 mg/ml after 60 mins by SDS-PAGE
Active and inactive are the calls of the source. The calls are words filed in the database; no cut-off is given here.
# valid calls are active, inactive; nothing else

Use the examples below as a reference point.
> print(dat)
                           structure.string  qualitative.label
1  CC(C)(C)OC(=O)N[C@@H](Cc1ccccc1)C(=O)OCC(=O)N1CC#C/C=C\C#CCC1             active
2  CC(C)(C)OC(=O)N[C@@H](Cc1ccccc1)C(=O)OCC(=O)N1CC#Cc2ccccc2C#CCC1             active
3  CC(C)(C)OC(=O)N[C@@H](Cc1ccccc1)C(=O)OCC(=O)N1CCCCC1           inactive
4  C[C@H](NC(=O)OC(C)(C)C)C(=O)N[C@@H](Cc1ccccc1)C(=O)NCCC#Cc1ccccc1C#CC=O             active
5  CC(C)(C)OC(=O)N[C@@H](Cc1ccccc1)C(=O)N1CC#Cc2ccccc2C#CCC1             active

Each molecule tested received a call. Report the one for CC(C)(C)OC(=O)N[C@@H](Cc1ccccc1)C(=O)N1CCc2ccccc2C1 .
inactive
